biological target: N-terminally FLAG-tagged PARP2 (amino acids 1-583) (Homo sapiens); construct: N-terminally FLAG-tagged PARP2 (amino acids 1-583); assay: PARP2 probe displacement HTRF assay; type: binding; details: binned Kd, probe displacement HTRF
Sequence (Q9UGN5 whole entry, the tested form may be a part): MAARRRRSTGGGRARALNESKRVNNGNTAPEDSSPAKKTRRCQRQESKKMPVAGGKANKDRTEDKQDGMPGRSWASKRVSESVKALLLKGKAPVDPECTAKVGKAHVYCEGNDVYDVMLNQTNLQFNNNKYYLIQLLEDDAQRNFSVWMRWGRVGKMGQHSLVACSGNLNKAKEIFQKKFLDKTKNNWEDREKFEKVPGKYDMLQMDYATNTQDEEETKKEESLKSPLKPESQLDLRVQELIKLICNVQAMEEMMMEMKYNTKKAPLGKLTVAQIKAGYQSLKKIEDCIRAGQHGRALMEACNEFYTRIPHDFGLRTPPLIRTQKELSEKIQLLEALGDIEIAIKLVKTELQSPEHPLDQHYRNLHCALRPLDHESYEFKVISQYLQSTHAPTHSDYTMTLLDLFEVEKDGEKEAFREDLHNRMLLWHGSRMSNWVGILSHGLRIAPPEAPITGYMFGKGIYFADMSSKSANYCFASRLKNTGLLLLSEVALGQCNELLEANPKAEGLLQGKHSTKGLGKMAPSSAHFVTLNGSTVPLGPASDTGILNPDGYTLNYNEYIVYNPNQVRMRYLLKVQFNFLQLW
pKd: −log10 of the molar value.
Listing: pKd of selected molecules

>  <molecule>
CNC(=O)c1ccc(N2CCC(N3CCC(c4nc5c(c(=O)[nH]4)CCC5)C3)CC2)cn1 (single isomer, unassigned) [Compound 283b]

>  <pKd>
5.00 to 6.00

$$$$
>  <molecule>
CNC(=O)c1ccc(N2CCC(N3CCC(c4cc5cc(O)ccc5c(=O)[nH]4)C3)CC2)cn1 (single isomer, unassigned) [Compound 357b]

>  <pKd>
5.00 to 6.00

$$$$
>  <molecule>
CCCc1ccc(C2CCN(C3CCN(c4ccc(C(=O)NC)nc4)CC3)C2)[nH]c1=O (single isomer, unassigned) [Compound 261b]

>  <pKd>
5.00 to 6.00

$$$$
>  <molecule>
CCc1ccc(C2CCN(C3CCN(c4ccc(C(=O)NC5CC5)nc4C#N)CC3)C2)[nH]c1=O (single isomer, unassigned) [Compound 409b]

>  <pKd>
6.00 to 7.00

$$$$
>  <molecule>
CNC(=O)c1ccc(N2CCC(N3CC4(c5nc6ccncc6c(=O)[nH]5)CC3C4)CC2)cn1

>  <pKd>
< 5.00

$$$$
>  <molecule>
CNC(=O)c1ncc(N2CCC(N3CC4(c5nc6ccc(F)cc6c(=O)[nH]5)CC3C4)CC2)cc1F

>  <pKd>
6.00 to 7.00

$$$$
>  <molecule>
N#Cc1ccc(N2CCC(N3CCC(c4cc5ccc(F)cc5c(=O)[nH]4)C3)CC2)c(Cl)c1 (single isomer, unassigned) [Compound 386b]

>  <pKd>
5.00 to 6.00

$$$$
>  <molecule>
O=C(NC1CC1)c1ccc(N2CCC(N3CCC(c4cc5cccc(F)c5c(=O)[nH]4)C3)CC2)cn1 (single isomer, unassigned) [Compound 339b]

>  <pKd>
6.00 to 7.00

$$$$
>  <molecule>
CNC(=O)c1ccc(N2CCC(N3CCC(c4nc5[nH]nc(C(F)(F)F)c5c(=O)[nH]4)C3)CC2)c(F)n1 (single isomer, unassigned) [Compound 267b]

>  <pKd>
7.00 to 8.00

$$$$
>  <molecule>
O=C(NC1CC1)c1ncc(N2CCC(N3CC4(c5nc6ccc(F)cc6c(=O)[nH]5)CC3C4)CC2)cc1F

>  <pKd>
6.00 to 7.00

$$$$
>  <molecule>
CCc1ccc(C2CCN(C3CCN(c4ccc(C(=O)NC)nc4Cl)CC3)C2)[nH]c1=O (single isomer, unassigned) [Compound 239a]

>  <pKd>
< 5.00

$$$$
>  <molecule>
CNC(=O)c1ccc(N2CCC(N3CCC(c4cc5cccc(F)c5c(=O)[nH]4)C3)CC2)cc1F (single isomer, unassigned) [Compound 281b]

>  <pKd>
6.00 to 7.00

$$$$
>  <molecule>
CNC(=O)c1cc(Cl)c(N2CCC(N3CCC(c4cc5ccc(F)cc5c(=O)[nH]4)C3)CC2)cn1 (single isomer, unassigned) [Compound 236a]

>  <pKd>
6.00 to 7.00

$$$$
>  <molecule>
CNC(=O)c1ccc(N2CCC(N3CC4(c5nc6ccccc6c(=O)[nH]5)CCC3C4)CC2)cn1 (single isomer, unassigned) [Compound 245b]

>  <pKd>
< 5.00

$$$$
>  <molecule>
CNC(=O)c1ncc(N2CCC(N3CCC(c4cc5cccc(F)c5c(=O)[nH]4)C3)CC2)cn1 (racemic)

>  <pKd>
6.00 to 7.00

$$$$
>  <molecule>
CS(=O)(=O)Nc1ccc(N2CCC(N3CCC(c4nc5ccccc5c(=O)[nH]4)C3)CC2)cc1 (single isomer, unassigned) [Compound 250a]

>  <pKd>
5.00 to 6.00

$$$$
>  <molecule>
CNC(=O)c1ccc(N2CCC(N3CCC(c4[nH]c(=O)c5c(F)cccc5c4F)C3)CC2)c(F)n1 (single isomer, unassigned) [Compound 402a]

>  <pKd>
6.00 to 7.00

$$$$
>  <molecule>
CCc1ccc(C2CCN(C3CCN(c4ccc(C#N)cc4)CC3)C2)[nH]c1=O (single isomer, unassigned) [Compound 317b]

>  <pKd>
6.00 to 7.00

$$$$
>  <molecule>
CNC(=O)c1ccc(N2CCC(N3CCCC(O)(c4nc5ccccc5c(=O)[nH]4)C3)CC2)cn1 (single isomer, unassigned) [Compound 327a]

>  <pKd>
< 5.00

$$$$
>  <molecule>
CC(=O)Nc1ccc(N2CCC(N3CCC(c4cc5ccccc5c(=O)[nH]4)C3)CC2)cn1 (single isomer, unassigned) [Compound 306a]

>  <pKd>
5.00 to 6.00

$$$$
>  <molecule>
CNC(=O)c1ccc(N2CCC(N3CC4(c5nc6ccccc6c(=O)[nH]5)CCC3C4)CC2)cn1 (single isomer, unassigned) [Compound 245a]

>  <pKd>
6.00 to 7.00

$$$$
>  <molecule>
CNC(=O)c1ccc(N2CCC(N3CC4(c5nc6c(c(=O)[nH]5)CCC6)CC3C4)CC2)cn1

>  <pKd>
< 5.00

$$$$
>  <molecule>
CNC(=O)c1ccc(N2CCC(N3CCC(c4nc5c(c(=O)[nH]4)CCC5)C3)CC2)cn1 (single isomer, unassigned) [Compound 283a]

>  <pKd>
< 5.00

$$$$
>  <molecule>
CCc1ccc(C2CCN(C3CCN(c4ccc(C(=O)NC)cc4)CC3)C2)[nH]c1=O (single isomer, unassigned) [Compound 355a]

>  <pKd>
5.00 to 6.00

$$$$
>  <molecule>
CNC(=O)c1cnc(N2CCC(N3CCC(c4cc5ccccc5c(=O)[nH]4)C3)CC2)s1 (racemic) [Compound 253rac]

>  <pKd>
< 5.00

$$$$
